Reference for the values: the supplement of paper PMC6607015

Tested on: A431
Assay: filipin (cholesterol) integrated intensity within LBPA endosomes, Z-score; higher = more cholesterol in LBPA endosomes
Conditions: compound concentration in added solution (µM; 5 µl added to 20 µl cells): 10; 18 h
Mark condition not met for filipin (z-score) values under -0.3, and condition met for everything at or above.

## Task Is filipin (z-score) for CO[C@H]1/C=C/O[C@@]2(C)Oc3c(C)c(O)c4c(c3C2=O)C2=NC3(CCN(CC(C)C)CC3)NC2=C(NC(=O)/C(C)=C\C=C\[C@H](C)[C@H](O)[C@@H](C)[C@@H](O)[C@@H](C)[C@H](OC(C)=O)[C@@H]1C)C4=O [Rifabutin] at or above -0.3?
## Result condition met

## Task Entry to check: C[C@@](Cc1ccc(O)c(O)c1)(NN)C(=O)O [Carbidopa]
## Result condition not met

## Task Entry to check: CC(=O)N(CC(C)C(=O)O)c1c(I)cc(I)c(N)c1I (configuration not stated) [Iocetamic acid]
## Result condition met

## Task Entry to check: Cc1cn([C@H]2C[C@H](N=[N+]=[N-])[C@@H](CO)O2)c(=O)[nH]c1=O [Zidovudine, AZT]
## Result condition not met

## Task Entry to check: CC=CC(=O)N(CC)c1ccccc1C [Crotamiton]
## Result condition not met

## Task Entry to check: CC(C)(C)C(=O)OCOC(=O)[C@@H]1N2C(=O)[C@@H](NC(=O)[C@H](N)c3ccccc3)[C@H]2SC1(C)C [Pivampicillin]
## Result condition met

## Task Entry to check: CC(=O)[C@@]1(O)CC[C@H]2[C@@H]3C[C@H](C)C4=CC(=O)C=C[C@]4(C)[C@@]3(F)[C@@H](O)C[C@@]21C [Fluorometholone]
## Result condition met
